- Test system: Saccharomyces cerevisiae
- measurementProtocol: protein stability index of tFT-peptide fusion (C-terminal peptide) (PSI (0-1 scale)); higher = more stable (slower turnover);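 also: PSI is a weighted mean of sequencing reads over stability bins, variants kept only with over 10 reads, mCherry proximal and sfGFP distal, peptide attached via GGGS linker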
- protocolConditions: genetic background: wild type; temperature: 30 C
Tag: y if measured protein stability index is not below 0.6, n if it is.

{"primarySequence": "WGWGWWEMVGRT", "testedTarget": "Saccharomyces cerevisiae", "classLabel": "y"}

As a next step, examine the sequence that follows.
Task: Does the reported protein stability index for PPPPHPPFPPRF fall at or above the 0.6 mark?
Result: y

----------
Task for the reader: assign each of the following sequences its reported protein stability index.
- System: Saccharomyces cerevisiae
- measurementProtocol: protein stability index of tFT-peptide fusion (C-terminal peptide) (PSI (0-1 scale)); higher = more stable (slower turnover)
- protocolConditions: genetic background: wild type; temperature: 37 C
Numbers only.

{"primarySequence": "FVMLSFLVSSLP", "measuredMetric": "protein stability index", "numericValue": 0.495}

Hey, can you go through the list below and give me protein stability index for every item?
1. GVCSFFVCVFFV
2. IFFVLVFFPGFF
3. KYQVIILQTRKI

Result:
1. 0.303
2. 0.506
3. 0.491

All figures here come from the supplement of paper PMC10724198.
